Catalogue of IC50 readings, one per entry.
Biological target: KMT9 (Homo sapiens)
Experiment: KMT9 methyltransferase inhibition assay, MTaseGlo luminescence (from entry 155)
Format: biochemical
Conditions: from entry 155: MTaseGlo assay, 100 nM KMT9, 5 μM ETF1, 1 μM SAM; read-out: Inhibition
measurement kind: IC50

compound	target or test system	result
CS(=O)(=O)n1ccc(-c2cn([C@@H]3C[C@H](CNCCCNCCc4ccccc4)[C@@H](O)[C@H]3O)c3ncncc23)n1 [Compound 640]	KMT9 (Homo sapiens)	1 to 10 µM
CN1CCC([C@H]2C[C@@H](n3cc(-c4ccn(Cc5ccccc5)n4)c4c(N)nc(Cl)nc43)[C@H](O)[C@@H]2O)CC1 [Compound 502]	KMT9 (Homo sapiens)	0.1 to 1 µM
Nc1ncnc2c1c(-c1nc(Oc3ccccc3)cs1)cn2[C@@H]1C[C@H](CNCCCNCCc2ccccc2)[C@@H](O)[C@H]1O [Compound 607]	KMT9 (Homo sapiens)	0.1 to 1 µM
O[C@@H]1[C@@H](CNCCCNCCc2ccccc2)C[C@@H](n2cc(-c3cc(Cc4ccccc4)cs3)c3cnc(Cl)nc32)[C@@H]1O [Compound 621]	KMT9 (Homo sapiens)	1 to 10 µM
O[C@@H]1[C@@H](CNCCCNCCc2ccccc2)C[C@@H](n2cc(-c3nc(Oc4ccccc4)cs3)c3cncnc32)[C@@H]1O [Compound 639]	KMT9 (Homo sapiens)	1 to 10 µM
O[C@@H]1[C@@H](CNCCCNCCc2ccccc2)C[C@@H](n2cc(-c3nc(Cc4ccccc4)cs3)c3cnc(Cl)nc32)[C@@H]1O [Compound 634]	KMT9 (Homo sapiens)	1 to 10 µM
Nc1nc(Cl)nc2c1c(-c1ccn(Cc3ccccc3)n1)cn2[C@@H]1C[C@H](CNCCCNCCc2ccccc2)[C@@H](O)[C@H]1O [Compound 636]	KMT9 (Homo sapiens)	0.1 to 1 µM
Nc1ncnc2c1ccn2[C@@H]1C[C@H](c2ccncc2)[C@@H](O)[C@H]1O [Compound 389]	KMT9 (Homo sapiens)	> 10 µM
O[C@@H]1[C@@H](CNCCCNCCc2ccccc2)C[C@@H](n2cc3c4c(ncnc42)NCCCC3)[C@@H]1O [Compound 631]	KMT9 (Homo sapiens)	1 to 10 µM
O[C@@H]1[C@H](O)[C@@H](C2CCNCC2)C[C@H]1n1cc(-c2ccn(Cc3ccccc3)n2)c2cnc(Cl)nc21 [Compound 522]	KMT9 (Homo sapiens)	1 to 10 µM
Nc1nc(Cl)nc2c1c(-c1ccn(Cc3ccccc3)n1)cn2[C@@H]1C[C@H](C2CCNCC2)[C@@H](O)[C@H]1O [Compound 501]	KMT9 (Homo sapiens)	< 0.1 µM
Nc1ncnc2c1ccn2[C@@H]1C[C@H](c2cccs2)[C@@H](O)[C@H]1O [Compound 390]	KMT9 (Homo sapiens)	> 10 µM
Nc1ncnc2c1c(-c1nccs1)cn2[C@@H]1C[C@H](c2cc(Cl)cc(Cl)c2)[C@@H](O)[C@H]1O [Compound 394]	KMT9 (Homo sapiens)	> 10 µM

---

Target: KMT9 (Homo sapiens)
Assay: Microscale thermophoresis (MST) KMT9 binding
Details: microscale thermophoresis, His-tag labelled KMT9 (20 nM); read-out: MST
Catalogue of Kd readings, one per entry.
measurement kind: Kd

smiles representation	measurement kind	result
CC(=O)N1CCC(c2cn([C@@H]3C[C@H](CNCCCNCCc4ccccc4)[C@@H](O)[C@H]3O)c3ncnc(N)c23)CC1	Kd	0.1 to 1 µM
CNc1ncnc2c1ccn2[C@@H]1C[C@H](CN(CCCNCCc2cccc(Oc3ccccc3)c2)NC)[C@@H](O)[C@H]1O	Kd	> 1 µM
Nc1ncnc2c1ncn2[C@@H]1O[C@H](C(=O)NCCCNC(=O)Nc2ccccc2)[C@@H](O)[C@H]1O	Kd	> 1 µM
CN1CC=C(c2cn([C@@H]3C[C@H](CNCCCNCCc4ccccc4)[C@@H](O)[C@H]3O)c3ncnc(N)c23)CC1	Kd	> 1 µM
CNc1ncnc2c1ccn2[C@@H]1C[C@H](C(=O)NCC2CCNCC2)[C@@H](O)[C@H]1O	Kd	> 1 µM
CNc1ncnc2c1ccn2[C@@H]1C[C@H](C(=O)N(C)CCCNCCc2cccc(Oc3ccccc3)c2)[C@@H](O)[C@H]1O	Kd	0.01 to 0.1 µM
CNc1ncnc2c1ccn2[C@@H]1C[C@H](COCCCNCCc2cccc(Oc3ccccc3)c2)[C@@H](O)[C@H]1O	Kd	> 1 µM

---

Catalogue of pIC50 readings, one per entry.
Biological target: KMT9 (Homo sapiens)
Sequence (Q9Y5N5 1-214): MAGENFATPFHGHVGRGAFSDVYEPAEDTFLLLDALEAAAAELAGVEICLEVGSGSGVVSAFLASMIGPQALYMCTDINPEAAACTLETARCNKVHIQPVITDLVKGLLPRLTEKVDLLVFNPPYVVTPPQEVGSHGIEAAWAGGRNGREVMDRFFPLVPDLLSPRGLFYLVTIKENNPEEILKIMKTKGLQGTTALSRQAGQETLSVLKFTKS
Sequence (Q9UI30 1-120 isoform Q9UI30-2 partner): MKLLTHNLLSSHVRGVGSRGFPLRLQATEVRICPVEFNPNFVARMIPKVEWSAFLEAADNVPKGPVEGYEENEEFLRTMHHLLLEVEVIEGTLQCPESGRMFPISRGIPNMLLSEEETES
Test: KMT9 methyltransferase inhibition assay, MTaseGlo luminescence (from entry 155)
Assay type: biochemical
Conditions: IC50 class; MTaseGlo procedure (entries from 155 on); 100 nM KMT9, 5 μM ETF1, 1 μM SAM; read-out: Inhibition
Procedure: For the compounds from entry 155 on in Table 1, the following procedure was used to determine IC50 values: The assay was carried out in white, opaque 384-well OptiPlates (PerkinElmer). […] Luminescence was measured using a PerkinElmer EnVision 2102 Multilabel Reader. […]
pIC50: −log10 of the molar value.
measurement kind: pIC50

compound	result
Nc1ncnc2c1c(-c1nc(Cc3ccccc3)cs1)cn2[C@@H]1C[C@H]([C@@H]2CCNC2)[C@@H](O)[C@H]1O [Compound 589S]	5.00 to 6.00
Nc1ccc([C@H]2C[C@@H](n3ccc4c(N)ncnc43)[C@H](O)[C@@H]2O)cc1	< 5.00
Nc1nc(Cl)nc2c1c(-c1ccccc1)cn2[C@@H]1C[C@H](CNCCCNCCc2ccc(F)cc2)[C@@H](O)[C@H]1O	6.00 to 7.00
CCN(CCCNCCc1ccc(F)cc1)C[C@H]1C[C@@H](n2cc(-c3ccccc3)c3c(N)nc(Cl)nc32)[C@H](O)[C@@H]1O	6.00 to 7.00
Nc1ncnc2c1c(-c1nc(Cc3ccccc3)cs1)cn2[C@@H]1C[C@H]([C@H]2CCNC2)[C@@H](O)[C@H]1O [Compound 589R]	5.00 to 6.00
O[C@@H]1[C@H](O)[C@@H](C2CCCN(CC(F)(F)F)C2)C[C@H]1n1cc(-c2nc(Cc3ccccc3)cs2)c2cnc(Cl)nc21 (stereo partly drawn)	< 5.00
Nc1nc(Cl)nc2c1c(-c1nc(Cc3ccccc3)cs1)cn2[C@@H]1C[C@H](C2CCN(CC3CC3)CC2)[C@@H](O)[C@H]1O	6.00 to 7.00
O[C@@H]1[C@H](O)[C@@H](C2CCCN(CCc3ccccc3)C2)C[C@H]1n1cc(-c2nc(Cc3ccccc3)cs2)c2cnc(Cl)nc21 (stereo partly drawn)	< 5.00
CN1CCC([C@H]2C[C@@H](n3cc(-c4ccn(S(=O)(=O)c5ccccc5)n4)c4c(N)nc(Cl)nc43)[C@H](O)[C@@H]2O)CC1	6.00 to 7.00
CN1CCCC([C@H]2C[C@@H](n3cc(-c4nc(Cc5ccccc5)cs4)c4cnc(Cl)nc43)[C@H](O)[C@@H]2O)C1 (stereo partly drawn)	5.00 to 6.00
COc1csc(-c2cn([C@@H]3C[C@H](CNCCCNCCc4ccccc4)[C@@H](O)[C@H]3O)c3ncncc23)n1	< 5.00
CC(C)N1CCC([C@H]2C[C@@H](n3cc(-c4nc(Cc5ccccc5)cs4)c4c(N)nc(Cl)nc43)[C@H](O)[C@@H]2O)CC1	6.00 to 7.00
O[C@@H]1[C@H](O)[C@@H](C2=CCCN(CCc3ccccc3)C2)C[C@H]1n1cc(-c2nc(Cc3ccccc3)cs2)c2cnc(Cl)nc21	< 5.00
O[C@@H]1[C@H](O)[C@@H](C2CCN(CC(F)(F)F)CC2)C[C@H]1n1cc(-c2nc(Cc3ccccc3)cs2)c2cnc(Cl)nc21	< 5.00
Nc1ncnc2c1ccn2[C@@H]1C[C@H](c2cccc(-c3cn[nH]c3)c2)[C@@H](O)[C@H]1O	< 5.00
CN1CCC([C@H]2C[C@@H](n3cc(-c4ccn(Cc5ccccc5)n4)c4cnc(Cl)nc43)[C@H](O)[C@@H]2O)CC1	6.00 to 7.00
CN1CCC([C@H]2C[C@@H](n3cc(-c4nc(Cc5ccccc5)cs4)c4c(N)nc(Cl)nc43)[C@H](O)[C@@H]2O)CC1	6.00 to 7.00
Nc1ncnc2c1ccn2[C@@H]1C[C@H](c2cccc(-c3cccnc3)c2)[C@@H](O)[C@H]1O	< 5.00
